Measured activity at 0.01 µM of individual entries
- Tested on: human mammary tumoral lineage T-47D
- protocol.text: Clonogenic test (soft agar), growth of cellular colonies
- Type: cell-based
- assay.conditions: Homo sapiens, T47D, 504 h; T-47D, 10^-8 M, 21 days, control = 100%; read-out: mean number of cellular colonies in relation to control
readout.label: activity at 0.01 µM (%)

In [3]: df
Out[3]:
                                   compound                        target_system        readout_label  unit_label  assay_value
0  C/C(=C/c1ccc2c(c1)C(C)(C)CCC2(C)C)c1ccc(C(=O)O)cc1 [CB28628, reference compound]  human mammary tumoral lineage T-47D  activity at 0.01 µM           %         97.6
1  C/C(=C\c1cc2c(cc1C)C(C)(C)CCC2(C)C)c1ccc(C(=O)O)cc1 [CB71802]  human mammary tumoral lineage T-47D  activity at 0.01 µM           %         45.2
2  C/C(=C/c1ccc2c(c1)C(C)(C)CCC2(C)C)c1ccc(-c2nnn[nH]2)cc1 [CB92834]  human mammary tumoral lineage T-47D  activity at 0.01 µM           %           38
3  C/C(=C\c1ccc2c(c1)C(C)(C)CCC2(C)C)c1ccc(C(=O)Nc2nnn[nH]2)cc1 [CB73364]  human mammary tumoral lineage T-47D  activity at 0.01 µM           %         10.3
